Bc-At: mean of the diameter of the lesion overview
Test system: Botrytis cinerea
protocol_description: Control of Botrytis cinerea disease in Arabidopsis (Bc-At)
Assay type: in vivo
measurement_context: 1 μM spraying every 24 hours for one week, water control 8.7
A number alone suffices; assume mm.

Example cases with answers are listed next.
INSERT INTO assay_data (compound, unit_of_measure, measurement) VALUES
  ('O=C(CCc1cc2cc3c(C4CCCCC4)coc3cc2oc1=O)NCC(O)CO (centres unmarked)', 'mm', 0.5),
  ('O=C(CC1COc2ccc(C(=O)NC3CCCCC3)cc2N1)NC(CO)CO (centres unmarked)', 'mm', 0.5),
  ('O=C(c1ccc(OC2CCN(CC(O)CO)CC2)cc1)N1CCC(c2ccccc2)C1 (centres unmarked)', 'mm', 1.2),
  ('Cc1c(CCC(=O)NCC(O)CO)c(=O)oc2cc3occ(-n4cccc4)c3cc12 (centres unmarked)', 'mm', 1.1);

Turning to the following compound.
Lookup: Dear colleague, I am looking for the recorded Bc-At: mean of the diameter of the lesion of the following compound: Cc1nc(N2CCN(C3CCCCC3)CC2)ncc1C(=O)N1CC2CC(O)C(O)CC2C1 (centres unmarked)
Found: 1.5

###

Tested on: Botrytis cinerea
protocol_description: Control of Botrytis cinerea disease in Arabidopsis (Bc-At)
Format: in vivo
measurement_context: 1 μM spraying every 24 hours for one week, water control 8.7
result_type: Bc-At: mean of the diameter of the lesion (mm)
A number alone suffices; assume mm.

Example cases with answers are listed next.
INSERT INTO results (compound, system_name, measurement) VALUES
  ('O=C(CC1COc2ccc(C(=O)Nc3ccccc3)cc2N1)NC(CO)CO (centres unmarked) [VC]', 'Botrytis cinerea', 1.2),
  ('O=C(c1ccc(OC2CCN(CC(O)CO)CC2)cc1)N1CCCC1 (centres unmarked) [IVI]', 'Botrytis cinerea', 1.2);

Lookup: Dear colleague, I am looking for the recorded Bc-At: mean of the diameter of the lesion of the following compound: O=C(Cc1cc2c(oc1=O)C=CC1C(C3CCCC3)=COC21)NCC(O)CO (centres unmarked) [IID]
Found: 0.7

Lookup: What would you report for Cc1c(CCC(=O)NCC(O)CO)c(=O)oc2cc3occ(-c4ccccc4)c3cc12 (centres unmarked) [II] ?
Found: 0.5

###

Tested on: Candidatus 'Liberibacter asiaticus'
Assay type: in vivo
measurement_context: 1 μM, spraying every 15 days, 12 months after treatment, Citrus sinensis with HLB
Titers of the bacterium overview
A number alone suffices; assume copies per reaction.

INSERT INTO results (molecule, result_type, measurement) VALUES
  ('Cc1coc2cc3oc(=O)c(CCC(=O)NCC(O)CO)cc3cc12 (centres unmarked) [IA]', 'Titers of the bacterium', 0),
  ('Cc1c2c(oc(=O)c1CC(=O)NCC(O)CO)C=CC1C(C3CCCC3)=COC21 (centres unmarked) [IIK]', 'Titers of the bacterium', 0),
  ('O=C(Cc1cc2c(oc1=O)C=CC1C(C3CCCC3)=COC21)NCC(O)CO (centres unmarked) [IID]', 'Titers of the bacterium', 2);

Lookup: Dear colleague, I am looking for the recorded Titers of the bacterium of the following molecule: CC(O)C(O)CN1CCC(Oc2ccc(C(=O)N3CCC(c4ccccc4)C3)cc2)CC1 (centres unmarked) [IVD]
Found: 0

Lookup: What would you report for O=C(Cc1cc2c(oc1=O)C=CC1C(c3ccccc3)=COC21)NCC(O)CO (centres unmarked) [IIB] ?
Found: 2

Lookup: What would you report for O=C(c1cnc(N2CCN(C3CCCCC3)CC2)nc1)N1CC2CC(O)C(O)CC2C1 (centres unmarked) [IIIE] ?
Found: 0

Lookup: What would you report for CC(O)C(O)CN1CCC(Oc2ccc(C(=O)N3CCC(C4CCCCC4)C3)cc2)CC1 (centres unmarked) [IVF] ?
Found: 0

Lookup: What would you report for Cc1c2c(oc(=O)c1CC(=O)NCC(O)CO)C=CC1C=COC21 (centres unmarked) [IIM] ?
Found: 0

Lookup: What would you report for O=C(c1ccc(OC2CCN(CC(O)CO)CC2)cc1)N1CCC(n2cccc2)C1 (centres unmarked) [IVK] ?
Found: 4

Lookup: What would you report for CC1CCN(C(=O)c2ccc(OC3CCN(CC(O)C(C)O)CC3)cc2)C1 (centres unmarked) [IVB] ?
Found: 4

###

Tested on: Botrytis cinerea
protocol_description: Control of Botrytis cinerea disease in Arabidopsis (Bc-At)
Format: in vivo
measurement_context: 1 μM spraying every 24 hours for one week, water control 8.7
Method: In order to compare the effect of the compounds of formula I to V on the control of diseases in different plants, experiments were conducted in tobacco, tomato and Arabidopsis thaliana plants inoculated with Phytophthora parasitica, Rhizoctonia solani, Alternaria solani, Nocardia sp and Botrytis cinerea, respectively. The compounds were applied by spraying, at a concentration of 1 μM, every 24 hours for one week. […] In the case of plants affected by Botrytis cinerea, the lesion diameter was measured. […]
result_type: Bc-At: mean of the diameter of the lesion (mm)
A number alone suffices; assume mm.

Example cases with answers are listed next.
INSERT INTO measurements (compound, measurement) VALUES
  ('O=C(Cc1cc2c(oc1=O)C=CC1C(c3ccc4ccccc4c3)=COC21)NCC(O)CO (stereo not drawn)', 1.2),
  ('CC1CCN(C(=O)c2ccc(OC3CCN(CC(O)CO)CC3)cc2)C1 (stereo not drawn)', 2.4),
  ('CC1=COC2c3cc(CC(=O)NCC(O)CO)c(=O)oc3C=CC12 (stereo not drawn)', 0.5);

Lookup: Dear colleague, I am looking for the recorded Bc-At: mean of the diameter of the lesion of the following compound: Cc1c2c(oc(=O)c1CC(=O)NCC(O)CO)C=CC1C=COC21 (stereo not drawn)
Found: 0.5

Lookup: What would you report for O=C(Cc1cc2c(oc1=O)C=CC1C(C3CCCCC3)=COC21)NCC(O)CO (stereo not drawn) ?
Found: 2.4

Lookup: What would you report for CC(O)C(O)CN1CCC(Oc2ccc(C(=O)N3CCC(c4ccccc4)C3)cc2)CC1 (stereo not drawn) ?
Found: 1.1

Lookup: What would you report for O=C(Cc1cc2c(oc1=O)C=CC1C(c3ccccc3)=COC21)NCC(O)CO (stereo not drawn) ?
Found: 1.5

Lookup: What would you report for Cc1c2c(oc(=O)c1CC(=O)NCC(O)CO)C=CC1C(c3ccc4ccccc4c3)=COC21 (stereo not drawn) ?
Found: 1.1

Lookup: What would you report for O=C(c1ccc(OC2CCN(CC(O)CO)CC2)cc1)N1CCC(C2CCCCC2)C1 (stereo not drawn) ?
Found: 0.5

###

Tested on: Botrytis cinerea
protocol_description: Control of Botrytis cinerea disease in Arabidopsis (Bc-At)
Assay type: in vivo
measurement_context: 1 μM spraying every 24 hours for one week, water control 8.7
Bc-At: mean of the diameter of the lesion overview
A number alone suffices; assume mm.

INSERT INTO measurements (compound, measurement) VALUES
  ('CC(O)C(O)CN1CCC(Oc2ccc(C(=O)N3CCCC3)cc2)CC1 (stereo not drawn) [IVJ]', 1.1),
  ('O=C(CCc1cc2cc3ccoc3cc2oc1=O)NCC(O)CO (stereo not drawn) [IF]', 0.7);

Turning to the following compound.
Lookup: Dear colleague, I am looking for the recorded Bc-At: mean of the diameter of the lesion of the following compound: Cc1c2c(oc(=O)c1CC(=O)NCC(O)CO)C=CC1C(C3CCCCC3)=COC21 (stereo not drawn) [IIJ]
Found: 0.7

###

System: Botrytis cinerea
protocol_description: Control of Botrytis cinerea disease in Arabidopsis (Bc-At)
Assay type: in vivo
measurement_context: 1 μM spraying every 24 hours for one week, water control 8.7
Just a reminder that ties go to label 0: only Bc-At: mean of the diameter of the lesion strictly below 1 mm counts as label 1.

Sample answers from the record:
INSERT INTO assay_data (compound, class_assignment) VALUES
  ('Cc1c2c(oc(=O)c1CC(=O)NCC(O)CO)C=CC1C(n3cccc3)=COC21 (stereo not drawn)', 'label 0'),
  ('O=C(CC1COc2ccc(C(=O)NC3CCCC3)cc2N1)NC(CO)CO (stereo not drawn)', 'label 0');

Lookup: For O=C(c1cnc(N2CCNCC2)nc1)N1CC2CC(O)C(O)CC2C1 (stereo not drawn) , is the recorded Bc-At: mean of the diameter of the lesion below the cut-off of 1 mm?
Found: label 0

###

Titers of the bacterium overview
Tested on: Candidatus 'Liberibacter asiaticus'
Format: in vivo
measurement_context: 1 μM, spraying every 15 days, 12 months after treatment, Citrus sinensis with HLB
A number alone suffices; assume copies per reaction.

INSERT INTO assay_data (molecule, system_name, result_type, unit_of_measure, measurement) VALUES
  ('O=C(CCc1cc2cc3ccoc3cc2oc1=O)NCC(O)CO (centres unmarked)', 'Candidatus ''Liberibacter asiaticus''', 'Titers of the bacterium', 'copies per reaction', 0);

Lookup: Dear colleague, I am looking for the recorded Titers of the bacterium of the following molecule: CC(O)C(O)CN1CCC(Oc2ccc(C(=O)N3CCC(n4cccc4)C3)cc2)CC1 (centres unmarked)
Found: 7

Lookup: What would you report for CNC(=O)c1ccc2c(c1)N(C)C(CC(=O)NC(CO)CO)CO2 (centres unmarked) ?
Found: 2

Lookup: What would you report for O=C(CCc1cc2cc3c(-n4cccc4)coc3cc2oc1=O)NCC(O)CO (centres unmarked) ?
Found: 1

Lookup: What would you report for O=C(c1ccc(OC2CCN(CC(O)CO)CC2)cc1)N1CCCC1 (centres unmarked) ?
Found: 2

Lookup: What would you report for O=C(CCc1cc2cc3c(C4CCCCC4)coc3cc2oc1=O)NCC(O)CO (centres unmarked) ?
Found: 0

Lookup: What would you report for O=C(c1ccc(OC2CCN(CC(O)CO)CC2)cc1)N1CCC(C2CCCCC2)C1 (centres unmarked) ?
Found: 0

Lookup: What would you report for O=C(c1cnc(N2CCN(n3cccc3)CC2)nc1)N1CC2CC(O)C(O)CC2C1 (centres unmarked) ?
Found: 3

Lookup: What would you report for O=C(CCc1cc2cc3c(C4CCCC4)coc3cc2oc1=O)NCC(O)CO (centres unmarked) ?
Found: 0

Lookup: What would you report for CC(O)C(O)CN1CCC(Oc2ccc(C(=O)N3CCCC3)cc2)CC1 (centres unmarked) ?
Found: 3

Lookup: What would you report for O=C(c1ccc(OC2CCN(CC(O)CO)CC2)cc1)N1CCC(C2CCCC2)C1 (centres unmarked) ?
Found: 0

Lookup: What would you report for CNC(=O)c1ccc2c(c1)NC(CC(=O)NC(CO)CO)CO2 (centres unmarked) ?
Found: 5

Lookup: What would you report for Cc1c(CCC(=O)NCC(O)CO)c(=O)oc2cc3occ(-c4ccc5ccccc5c4)c3cc12 (centres unmarked) ?
Found: 0

Lookup: What would you report for O=C(CC1COc2ccc(C(=O)NC3CCCCC3)cc2N1)NC(CO)CO (centres unmarked) ?
Found: 0

Lookup: What would you report for O=C(c1cnc(N2CCN(C3CCCC3)CC2)nc1)N1CC2CC(O)C(O)CC2C1 (centres unmarked) ?
Found: 5

Lookup: What would you report for O=C(Cc1cc2c(oc1=O)C=CC1C=COC21)NCC(O)CO (centres unmarked) ?
Found: 0

Lookup: What would you report for Cc1coc2cc3oc(=O)c(CCC(=O)NCC(O)CO)c(C)c3cc12 (centres unmarked) ?
Found: 12

Lookup: What would you report for Cc1nc(N2CCN(C3CCCC3)CC2)ncc1C(=O)N1CC2CC(O)C(O)CC2C1 (centres unmarked) ?
Found: 6

Lookup: What would you report for CN1c2cc(C(N)=O)ccc2OCC1CC(=O)NC(CO)CO (centres unmarked) ?
Found: 0

Lookup: What would you report for Cc1c2c(oc(=O)c1CC(=O)NCC(O)CO)C=CC1C(C3CCCCC3)=COC21 (centres unmarked) ?
Found: 1
